Target: purified recombinant human insulin receptor-exon 11 (human) (UniProt P06213)
Sequence (P06213 other isoform, or with tags, fused parts or gaps limits assumed, form in doubt): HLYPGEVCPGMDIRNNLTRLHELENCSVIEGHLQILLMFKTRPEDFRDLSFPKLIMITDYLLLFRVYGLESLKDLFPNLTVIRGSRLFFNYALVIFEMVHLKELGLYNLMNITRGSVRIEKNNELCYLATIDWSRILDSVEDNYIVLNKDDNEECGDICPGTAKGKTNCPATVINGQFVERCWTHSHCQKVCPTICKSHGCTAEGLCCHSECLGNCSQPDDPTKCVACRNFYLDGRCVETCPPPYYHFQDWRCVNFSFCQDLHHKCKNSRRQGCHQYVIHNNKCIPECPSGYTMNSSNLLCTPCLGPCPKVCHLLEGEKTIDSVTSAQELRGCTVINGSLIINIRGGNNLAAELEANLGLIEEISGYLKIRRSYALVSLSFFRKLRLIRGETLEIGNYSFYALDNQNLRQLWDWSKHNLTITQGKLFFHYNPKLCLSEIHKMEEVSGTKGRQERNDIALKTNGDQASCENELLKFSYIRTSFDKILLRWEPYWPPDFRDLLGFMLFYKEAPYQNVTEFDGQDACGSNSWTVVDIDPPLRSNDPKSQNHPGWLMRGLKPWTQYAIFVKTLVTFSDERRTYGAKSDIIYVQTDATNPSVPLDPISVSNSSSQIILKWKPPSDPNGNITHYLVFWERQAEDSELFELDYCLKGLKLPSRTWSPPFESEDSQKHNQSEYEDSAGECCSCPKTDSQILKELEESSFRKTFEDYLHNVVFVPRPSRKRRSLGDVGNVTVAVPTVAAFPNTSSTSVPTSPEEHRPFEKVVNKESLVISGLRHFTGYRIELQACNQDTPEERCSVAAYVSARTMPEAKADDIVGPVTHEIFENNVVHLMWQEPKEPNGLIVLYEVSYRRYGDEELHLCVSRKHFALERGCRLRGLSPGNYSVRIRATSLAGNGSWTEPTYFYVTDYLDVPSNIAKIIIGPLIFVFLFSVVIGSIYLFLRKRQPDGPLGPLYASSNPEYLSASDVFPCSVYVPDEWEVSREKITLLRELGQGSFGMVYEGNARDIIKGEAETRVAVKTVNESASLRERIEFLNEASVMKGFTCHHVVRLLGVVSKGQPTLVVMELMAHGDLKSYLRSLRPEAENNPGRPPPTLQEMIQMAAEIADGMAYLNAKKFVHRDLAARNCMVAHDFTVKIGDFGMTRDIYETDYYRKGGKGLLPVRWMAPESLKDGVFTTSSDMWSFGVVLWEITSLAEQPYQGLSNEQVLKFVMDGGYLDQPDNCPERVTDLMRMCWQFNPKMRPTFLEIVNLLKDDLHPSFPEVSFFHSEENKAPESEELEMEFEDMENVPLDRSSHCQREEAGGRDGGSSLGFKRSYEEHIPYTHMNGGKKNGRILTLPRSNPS
Assay: assay (I): SPA competition, displacement of A14 Tyr[125I]-human insulin from recombinant human insulin receptor; reference human insulin
Reported insulin receptor binding relative to that of human insulin is given for each of the following substances.
Reply with a number, then the unit it belongs to.

Below, 2 substances whose answers are already recorded.
substance: B(1-29)-B22K((eps)hexadecandioyl-gGlu)-B29Q-TGLGSGR-A(1-21)-A18Q-A21G Human insulin (from UniProt P01308 25-53; P01308 90-110) (ligand)
value-reported: 154%

substance: B(1-29)-B22K(N(eps)heptadecandioyl)-B29H-TGLGSGR-A(1-21)-A18Q-A21G Human insulin (from UniProt P01308 25-53; P01308 90-110) (ligand)
value-reported: 119%

Now, please, on to the next substance.
Input line: Param item = B(1-29)-B22K(N(eps)heptadecandioyl-g-L-Glu)-B29H-TGLGSGR-A(1-21)-A18Q-A21G Human insulin (from UniProt P01308 25-53; P01308 90-110) (ligand) ; retrieve measured insulin receptor binding relative to that of human insulin.
Output line: 53%
